# EXPERIMENTAL_DETAILS: soluble on expression in E. coli; label from the status in PepcDB or PDB records
QUANTITY_NAME: soluble on expression in E. coli

MVIRVFIASSSGFVAIKKKQQDVVRFLEANKIEFEEVDITMSEEQRQWMYKNVPPEKKPTQGNPLPPQIFNGDRYCGDYDSFFESKESNTVFSFLGLK    soluble
ARFYSDGLKLAGTLFVPDDYEPGQKRPAVLICHGRFAIKEWVPSRWTPHFLAAGYVCMVFDYRNLGESEGTPGRIIPDEEVRDARHALTYLQCQPEVDPARIGALGWGLGGGVAVSAAAHDARIKAVVCAIGVANGGRYGRVGMSDAAWAARQEQIAADRRERVLTGRSARLPRTEILGRPDAQRAERHERQNWIDSLVAAVGPERAADPAKLGIPDEITLESMEALYDFAPDAVVDRIAPRPLLIVHARDDHEFPFEHAADMYERAAQPKQLIAVEDAGHLDWIDPAHPSQQVYVPQVVAWMQAQL    not soluble
GHMASGSLGELQESQSRLEAATKECQALEGRARAASEQARQLESEREALQQQHSVQVDQLRMQGQSVEAALRMERQAASEEKRKLAQLQVAYHQLFQEYDNHIKSSVVGSERKRGMQLEDLKQQLQQAEE    soluble
VGGQVRIAANTSSITQFLPEDLAGFMQRHPAVRIHLEEQNSSDIVTAVAENRADVGIFADRTPAAGLTTVPYRLDELVLITPPRHPLAARAQVAFADTLDCDYVGLPPATSLATRLADESARLDKSIRLRIQVRSFDAICRMVVAT    not soluble
MSLDKIFVEEAVSELHTLQDMIRWTVSRFNAANLFYGQGTDNAWDEAVQLILPTLYLPIDVPPHVLSSRLTSSERLRVVERVIKRINDRTPVAYLTNKAWFCGLEFFVDSRVLVPRSPIGELIQNRFEPWLTEEPTRIMDLCTGSGCIAIACANAFPEAEVDAIDISVDALNVAEQNIQDHGLEQQVFPIRSDLFRDLPQEQYDLIVTNPPYVDQEDMDSLPSEFRHEPELGLAAGSDGLKLARRILANAPLYLKENGILVCEVGNSMVHMMEQYPHIPFTWLEFENGGHGVFLLTREQLIDCAADFALYKDEGHHHHHH    soluble
MGSDKIHHHHHHMSQMHQQLINEYTRTRLNEEAVSIERIYFYKTDKRVNPKQEEPFWHAAGDIPILVSAPHAVRHFRQKKIKMSDEYTGSIVYLLNKLTGCHAIAVTKLYGGDPNVDSPCIYKEKLAQLCRQGKIKLLLDIHGAARDRDFDVDFGTNNRRNLLEKMHTDEILAQNFRNCGFSKISSDYFAASSPNTIANFAARELGIPAVQIEINKHYRVPAQNPQGFHRLMAALVESINSVGRRYQEGWKDINRERKIR    not soluble
SANQNFNNSETLGHQGSHVVTLQLRIDGMHCKSCVLNIEENIGQLLGVQSIQVSLENKTAQVKYDPSCTSPVALQRAIEALPPGNFKVSLPDGAEGSGTDHRSSSSHSPGSPPRNQVQGTCSTTLIAIAGMTCASCVHSIEGMISQLEGVQQISVSLAEGTATVLYNPAVISPEELRAAIEDMGFEASVVSESCSTNPLGNH    soluble

###

# EXPERIMENTAL_DETAILS: soluble on expression in E. coli; label from the status in PepcDB or PDB records
QUANTITY_NAME: soluble on expression in E. coli

MAIDFNAMPPSTWAENLARNQLSKLQTQLDTQTKSAKARTDALSQLQKALQDYKSSLATLTGKKSLVAMNAAATPDGMASVTAKGNAAAGNYSVFVEQLASSQQ    not soluble
METIKSVDIYELGSPGEKSSPWSSTILIVKLTSSNGNIGYGEAPTTFMTLPVKESMREVERVFKDQNYFNIEKNMREFYKHSFYLSRSMEATSALSAFEIASWDLIGKDLGTPVYNLLGGEYNSELRAYANGWYSDCLEPDDFVSRAKEYIKKGYTAFKFDPFRNNFDRIGNDGIKKAVDIVSAMRSELGENIDLLIECHGRFSTKYAIKVGQALDEFNPLFIEEPIHPEMELGLFDFKRYVNTPVALGERLLNKEDFARYISQGMVDIVQADLTNSKGILEAKKISAIVESFGGLMAFHNAFGPVQTAATLNVDYTLTNFLIQESFEDSWPDWKRNLFSGYRIENGHFKLSGKPGLGITADEKLMEKLIYDGMEEFNKNEPSWVVSGTYK    not soluble
SKIYDNKNQLIADLGSERRVNAQANDIPTDLVKAIVSIEDHRFFDHRGIDTIRILGAFLRNLQSNSLQGGSTLTQQLIKLTYFSTSTSDQTISRKAQEAWLAIQLEQKATKQEILTYYINKVYMSNGNYGMQTAAQNYYGKDLNNLSLPQLALLAGMPQAPNQYDPYSHP    not soluble
MGSDKIHHHHHHMVRPRIKLTEHLSTEEIEQSYRRCEDAQEKTRWLVIKLLNQQPQLSAQKVAEIVGFSGDWVRKIVRRYNKLGANGIINQQKLKPGGKKLALTNEQQQWLRQRLASPPEDGGLWSAPKVGELIRVQFGITLHVTTAWDYLKRLGFSLQQPRPLHTEAATFVQRQMFKTELTEFVRLLRFLHPHKSVEVWAEDEARLGLKPIVRRVWTPVGHRPNAVHRTRYQWLYTYGFVHPATGESFFLILPRVNIAVMQMALDAFAAEVNPHHHKIIVLLVDQAGWHTSKQLMLPAGIILFPLPAYTPQLQPTECVWSLLREAVANQMFSTLDELETVLISRCQWLMSHPQIVHGKVGFDWICQI    not soluble
MSLSHSEKDVHEMGRFLLSTIKGSILELAFSHGEVEGLSFEKKVTILEIEDLDLPTDRHDELDENQRLSVTLMFALGTFCSKFGSRNRKEETVTFFDEAWIFQSSPEGQKILKSMKRIGRSFNNFMVLITQSVNDVLDNGDGTGFGTVVCFDEVDNREGILRYLKLPVNEINLKWVSNMIQGQCLMKDMFNQVNRIVIDVIFEEWLELFETVDEGHHHHHH    not soluble
MGSDKIHHHHHHMIKICSVAFLSLLLSASSLFAQTKTFAGADYSQGIVFVMENNQMVWKHKAPDSNDLWILPNGNILFTTGHGVLEMTRQNDTIFHYESKSPVFACQRLKNGNTFVGECVTGRMLEISPKGKIVKETCILPKGVKDGGFAFMRNARRLDNGHFLVAHYGDQCVKEYDANGKVVWKLDVPGGPHSLTRLPNGHTLIAVADKDQNPRLIEVTPEGKTIWEISNADIPGKPLKFLGGFQYFSDGRFLITNWTGHVNPKEKVHLLLVDRQKNVLYSLENTPELQTMSSVYSTDKPAGVASYH    not soluble

###

# EXPERIMENTAL_DETAILS: soluble on expression in E. coli; label from the status in PepcDB or PDB records
QUANTITY_NAME: soluble on expression in E. coli

MGSDKIHHHHHHMILSEVRIHNFRNIASTSLILNPNFNCITGPNGGGKTSLLEALYMLSCAHSFRSREITPIISYGQNQLNVFAHAYDESTISVQKSITDGTQIKLNNQFCCTTSQLAYALPCQVIYSDIFQIIDAGPSVRRSLLDWGLFHVKHDYLKIWKDYKRILSQRNALLKSRATYDHFIPWDQQLSQLANQLDKARNDYFLQWQPKFYQVLSDLTNISCTVEYYKGWDRKNAGQNMEELLQKSFDSDRKKLYTQYGPHQADLIISTEQYRVKHTLSRGQQKIILIALKLAQGQLLDKDCLYLIDDLAAELDDYHQRNLIKYLTQQKGQFVITNLINNNNYDILPIDSGLFEVNCGAIKNL    not soluble
MQRNSENSKNGRRVSSSSYMSAAAAAGAAAALRLSVDARAGKEYTTQTHQRDKT    not soluble
ALTVRKHYTKEQARVTVVNKYPTHQIITELHRLAAGNVSEKAVAMPLEKLFKGKDIDLKIAEVSSFSVDKKEVALADGSTLTYDALVVGLGSVTAYFGIPGLEENSMVLKSAADANKVFQHVEDRVREYSKTKNEADATILIGGGGLTGVELVGELADIMPNLAKKYGVDHKEIKLKLVEAGPKILPVLPDDLIERATASLEKRGVEFLTGLPVTNVEGNVIDLKDGSKVVANTFVWTGGVQGNPLVGESGLEVNRGRATVNDFLQSTSHEDVFVAGDSAVYFGPDGRPYPPTAQIAWQMGELIGYNLFAYLEGKTLETFKPVNSGTLASLGRKDAVAIIGANSTPLKGLPASLMKEASNVRYLTHIK    not soluble
MGSDKIHHHHHHNEEIEKAVQPVEISFNTAVSKTTRATTLVNSAFTKFTAYAYSTTGAFADATKVNALISGAEFTKGENSAWGSGNSVFYWPATDQVSFFAFSPNTTKQLSWGAAVANTAPTLTYTVEGTVEKQEDLVVAEAMNKQKATSGSTEAVALNFKHALTKVGFKIKGEGSGVTYTLNKIVINAKNKGVYTYGATSTTNETTLGTWTIPSDATATAYTVEPTEALSITGADNGGTANETLVEADYTAMLIPQNLTGVTFEIYYKAEAGGAILCDKTTTPEEITFTDGTWTAGQSVAYVLTLKGVEKMSITGSVADSWDFTETPK    not soluble
MSRVGVMVLGPAGAGKSTFCNSIISHMQTVGRRAHIVNLDPAAEATKYEFTIDIRDLISLDDVMEEMDLGPNGALIYCFEYLLKNLDWLDEEIGDFNDEYLIFDCPGQIELYTHIPVLPNIVRHLTQQLNFNLCATYLLEAPFVIDSSKFFSGALSAMSAMILLELPHINVLSKLDLIKGDINKKKLKRFLNPDAMLLMETEGMNQASNPKFLRLNQCIANLVDDFGMVQFLPLESNNPDSIETILSYVDDITQWAEGQEQKEPNDQIDVEE    soluble
MSLAANPWNWFGSSTKVSEQGVGELTASTPLQEQAIADALDGDYRLRSGMKTANGNVVRFFEVMKGDNVAMVINGDQGTISRIDVLDSDIPADTGVKIGTPFSDLYSKAFGNCQKADGDDNRAVECKAEGSQHISYQFSGEWRGPEGLMPSDDTLKNWKVSKIIWRREGHHHHHH    soluble
MKFDTIINQPVIETERFDLRPLRKSDMGLIEHYARDERVARMTTSIPHPLPPGMAEGFVARAMSEERTEDVWAMDATRDGGPELMGLISLERMDRNQSEVGYWVAPVFWNTGIASMAVEALVNANPLGNATMFASVFQDNPASARVLTHCGFQYLGDAESYSVARDAAVPTWTYSRKL    not soluble
MSLSGDLVSLKVVVFDIGNVLLRWDPRLLYRKIFSEENQMEWFLSQVCSEAFNRKLDGGAPFAAAIEALVAQFPDFSKEIRAYDERWLETTSGPIPETFAILEELVAEGVPLYAITNFSYEKFEVARCAFELFDRFDGIVVSGAEGVVKPEAPIYRLLLDRYGLDASDCLFIDDSAANVDGARAVGMQGYHYRDPISLRWKLTECGLLCRKSDLNDKGQVLEKREGHHHHHH    soluble
MSLKPWLLMMLTTLLVGCGGTPQPKVSFYLLPNNPELSEHIQPKTLPLLVVQPVELAAYLDTQGIVYRQSETQVIQARQNQWAQRLSPQLTQRITNDLRRKQSRYWPAPLNASSIQQEHWKLQVRLQRFNGVYTGNAEVAGNWELLNPKGESMLNQEFSFQVPLKDTGYPALVEALSAGVDQLSTQIETQLVTREGHHHHHH    soluble
MIRLVIVEPEGSYNLGFISRLAKNFLVDELYIVNPHCDLEEAKKFSAKGLEYLEKAKIVNNFDEAIKDVELKIATSSIADIKGDILRKSIRPWELPRIIEGKKVALIFGRESVGLTREEIAKSDLLLFIPGNPEYPVLNLSHAVGIVLYEIWKSRGENKPVISGEAISLIDKYSRDLVNLIKSNEGDEAMYIALKRALIKGIGDEEEARTIIRLLRKLYIKLTRKIE    soluble
MTNTLVENIYASVTHNISKKEASKNEKTKAVLNQAVADLSVAASIVHQVHWYMRGPGFLYLHPKMDELLDSLNANLDEVSERLITIGGAPYSTLAEFSKHSKLDEAKGTYDKTVAQHLARLVEVYLYLSSLYQVGLDITDEEGDAGTNDLFTAAKTEAEKTIWMLQAERGQGPAL    soluble
MGSDKIHHHHHHMNQIINDNYREFLKKLRERHLKKRKVKDKNKPIAVWMQDDIYRDFSIGKSLTIILRTEGCYYAKEGGCLMCSYLMDSSPEKITAENIINQFNYAIEKYKEKIKDLKDFSVKIFTSGSFLDDREVPKEARNYIFKKLSEFDNLKEVAIESRPEFIDEDKLNEIRKYLDVNVEIGVGIESFNEEIREKAINKGITNEQIIRAIELAKNYNIGIKAYLLIKPLFITEKEAIYDSISSANKCIELGCSRISFCPATVHKGSVMEFFFNKNQYRPPFLWSIIEILKEVKKSNPKALIMCDTSGVGSERGAHNLYNCKCNKLIKERLERFTLTQDINVLNVECECKNIWNAYIEVENKNIVPLGDERKLLL    not soluble
